Test System: β5c (chymotrypsin-like activity) (Homo sapiens, UniProt P20618+P28074)
Construct: protease activity associated with the proteasome complex in cultured cells; endogenous in cells; host or cells: Ramos cells
Procedure Text: Cell-Based Proteasome subunit activity/selectivity assay, β5c, substrate (WLA)2Rh110
Test Conditions: Ramos cells; substrate (WLA)2Rh110 (β5c); highest concentration tested 20 μM; read-out: Ic50:ramos:rh110-(wla)2
Metric Name: IC50

Output IC50 of CCc1ccc(C(C#N)NC(=O)c2cn(CCN3Cc4cc(OC)ccc4C3=O)nn2)cc1 (stereo not shown) [Example 47]
7.67 µM

Output IC50 of CCc1ccc(C(C#N)NC(=O)c2cn(CCNC(=O)c3cccnc3OC)nn2)cc1 (stereo not shown) [Example 29]
≥ 20 µM

Output IC50 of CCc1ccc(C(C#N)NC(=O)c2cn(CCNC(=O)c3ccc(OC)c(OC)c3OC)nn2)nc1 (stereo not shown) [Example 63]
≥ 20 µM

Output IC50 of CCc1ccc(C(C#N)NC(=O)c2cn(CCNC(=O)c3ccc(OC)c(OC)c3OC)nn2)cc1 (single isomer, unassigned) [Example 50]
≥ 20 µM

Output IC50 of CCc1ccc(C(C#N)NC(=O)c2nc(CCNC(=O)c3ccc(C(F)(F)F)cc3F)n[nH]2)cc1 (stereo not shown) [Example 91]
≥ 20 µM

Output IC50 of N#CC(NC(=O)c1cn(CCNC(=O)c2ccc(C(F)(F)F)cc2F)nn1)c1ccc(C(F)(F)F)cc1 (stereo not shown) [Example 73]
≥ 20 µM

Output IC50 of CCc1ccc(C(C#N)NC(=O)c2cn(CCNC(=O)c3ccc(SC)cc3OC)nn2)cc1 (stereo not shown) [Example 19]
12 µM

Output IC50 of CCc1ccc(C(C#N)NC(=O)c2cn(CCNC(=O)c3ccccc3OC(F)(F)F)nn2)cc1 (stereo not shown) [Example 24]
≥ 20 µM

Output IC50 of COc1ccc(C(=O)NCCn2cc(C(=O)NC(C#N)c3ccc4ccsc4c3)nn2)c(OC)c1OC (stereo not shown) [Example 66]
≥ 20 µM

Output IC50 of COc1ccc(C(=O)NCCn2cc(C(=O)NCc3ccc(C)c(C)c3)nn2)c(OC)c1OC [Example 4]
≥ 20 µM

Output IC50 of CC(CCc1ccccc1)NC(=O)c1cn(CCNC(=O)c2ccc(C(F)(F)F)cc2F)nn1 (stereo not shown) [Example 79]
3.39 µM

Output IC50 of CCc1ccc(C(C#N)NC(=O)c2cn(CCNC(=O)c3cccc(OC)n3)nn2)cc1 (stereo not shown) [Example 26]
≥ 20 µM

Output IC50 of CCc1ccc(C(C#N)NC(=O)c2cn(CCNC(=O)c3ccc(C(F)(F)F)cc3OC)nn2)cc1 (stereo not shown) [Example 23]
16.2 µM

Output IC50 of CCc1ccc(C(C#N)NC(=O)c2cn(CCNC(=O)CC3Cc4ccccc4C3)nn2)cc1 (stereo not shown) [Example 9]
≥ 20 µM

Output IC50 of COc1ccc(C(=O)NCCn2cc(C(=O)NCc3ccc(C)cc3)nn2)c(OC)c1OC [Example 3]
≥ 20 µM

Output IC50 of CCc1ccc(C(C#N)NC(=O)c2cn(CCNC(=O)c3ccc(OC)nc3OC)nn2)cc1 (stereo not shown) [Example 35]
5.49 µM
